Recorded values, source patent US20260234276A1.

Biological target: pm6 (human, sulfated tyrosines at Y16 and Y17)
Sequence (peptide, as listed by the source): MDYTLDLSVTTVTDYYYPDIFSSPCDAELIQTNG
Test: ELISA on coated peptide [cont.]
Experimental: The specific binding properties of antibodies were evaluated by ELISA with coated CCR8 related peptides (500 ng/mL) in carbonate/bicarbonate buffer. Different peptides were used as described in Table 1 (see Example 1). Each anti-CCR8 mAb was tested at 1 μg/mL then diluted at 1/10. […] Then the optical density (OD) was determined by using a multiplate reader (Tecan, Lyon, France) and correlated with mAb reactivity on the panel of coated peptides.
recorded endpoint: binding result

>>> result("3-47 (antibody, V domains shown) VH: QVQLQQPGAELVKPGASVKMSCKASGYTFTSYNMHWVKQTPGQGLEWIGAISPGNGDTSYNQKFKGKATLTADKSSSTAYMQLSSLTSEDSAVYYCARGKNGNVPMDYWGQGTSVTVSS VL: DIVLTQSPASLAVSLGQRATISCRASESVEYYGTSLMKWYQQKPGQPPKLLIYAASIVESGVPARFSGSGSGTDFSLNIHPVEEDDIAMYFCQQSRKVPWTFGGGTKLEIK")
"binds"
>>> result("3-80 (antibody, human IgG1, kappa, V domains shown, humanized, human IgG1 kappa) VH: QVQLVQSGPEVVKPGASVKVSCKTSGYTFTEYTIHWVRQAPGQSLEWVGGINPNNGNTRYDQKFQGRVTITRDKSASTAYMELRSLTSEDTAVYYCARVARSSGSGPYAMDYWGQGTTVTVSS VL: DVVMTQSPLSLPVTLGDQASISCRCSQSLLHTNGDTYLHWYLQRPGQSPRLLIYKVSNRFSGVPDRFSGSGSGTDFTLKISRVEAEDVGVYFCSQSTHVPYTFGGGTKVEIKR")
"binds"
